Test: refractive index (Na D-line) (dimensionless); xn = mol fraction of the nth substance listed
Conditions: 298.15 K; 101.32 kPa; Liquid; Standard Abbe refractometry; x1 = 0.55
MEASURED QUANTITY: refractive index

1. COCCOCCOCCOC [2,5,8,11-tetraoxadodecane] + CCO : 1.409
2. COCCOCCOCCOCCOC [2,5,8,11,14-pentaoxapentadecane] + CCO : 1.419
3. COCCOC [1,2-dimethoxyethane] + CCO : 1.3722
4. COCCOCCOC [2,5,8-trioxanonane] + CCO : 1.3948

---

Assay: xn = mol fraction of the nth substance listed
Conditions: 298.15 K; 101.32 kPa; Liquid; x1 = 0.0165
MEASURED QUANTITY: mass density (kg/m3)

1) COCCOCCOCCOCCOC [2,5,8,11,14-pentaoxapentadecane] + CCO : 799.6
2) COCCOC [1,2-dimethoxyethane] + CCO : 787.7
3) COCCOCCOCCOC [2,5,8,11-tetraoxadodecane] + CCO : 795.6
4) COCCOCCOC [2,5,8-trioxanonane] + CCO : 791.7

---

Assay: xn = mol fraction of the nth substance listed
Details: 308.15 K; 101.32 kPa; Liquid; x1 = 0.3
MEASURED QUANTITY: mass density (kg/m3)

1. COCCOCCOCCOCCOC [2,5,8,11,14-pentaoxapentadecane] + CCO : 918.2
2. COCCOCCOC [2,5,8-trioxanonane] + CCO : 856.9
3. COCCOC [1,2-dimethoxyethane] + CCO : 810.7
4. COCCOCCOCCOC [2,5,8,11-tetraoxadodecane] + CCO : 890.7

---

Experiment: xn = mol fraction of the nth substance listed
Settings: 288.15 K; 101.32 kPa; Liquid; x1 = 0.35
MEASURED QUANTITY: mass density (kg/m3)

1) COCCOCCOCCOCCOC [2,5,8,11,14-pentaoxapentadecane] + CCO : 947.9
2) COCCOC [1,2-dimethoxyethane] + CCO : 834.6
3) COCCOCCOCCOC [2,5,8,11-tetraoxadodecane] + CCO : 919.8
4) COCCOCCOC [2,5,8-trioxanonane] + CCO : 884.5

---

Experiment: xn = mol fraction of the nth substance listed
Settings: 308.15 K; 101.32 kPa; Liquid; x1 = 0.05
MEASURED QUANTITY: mass density (kg/m3)

1. COCCOCCOCCOCCOC [2,5,8,11,14-pentaoxapentadecane] + CCO : 816.1
2. COCCOCCOCCOC [2,5,8,11-tetraoxadodecane] + CCO : 805.4
3. COCCOC [1,2-dimethoxyethane] + CCO : 783.6
4. COCCOCCOC [2,5,8-trioxanonane] + CCO : 795

---

Experiment: refractive index (Na D-line) (dimensionless); xn = mol fraction of the nth substance listed
Conditions: 318.15 K; 101.32 kPa; Liquid; Standard Abbe refractometry; x1 = 0.0045
MEASURED QUANTITY: refractive index

1. COCCOCCOC [2,5,8-trioxanonane] + CCO : 1.3514
2. COCCOC [1,2-dimethoxyethane] + CCO : 1.351
3. COCCOCCOCCOCCOC [2,5,8,11,14-pentaoxapentadecane] + CCO : 1.3522
4. COCCOCCOCCOC [2,5,8,11-tetraoxadodecane] + CCO : 1.3517

---

Assay: xn = mol fraction of the nth substance listed
Settings: 318.15 K; 101.32 kPa; Liquid; x1 = 0.05
MEASURED QUANTITY: mass density (kg/m3)

1) COCCOCCOCCOC [2,5,8,11-tetraoxadodecane] + CCO : 796.4
2) COCCOCCOCCOCCOC [2,5,8,11,14-pentaoxapentadecane] + CCO : 807.1
3) COCCOC [1,2-dimethoxyethane] + CCO : 774.6
4) COCCOCCOC [2,5,8-trioxanonane] + CCO : 786

---

Assay: refractive index (Na D-line) (dimensionless); xn = mol fraction of the nth substance listed
Settings: 318.15 K; 101.32 kPa; Liquid; Standard Abbe refractometry; x1 = 0.55
MEASURED QUANTITY: refractive index

1) COCCOC [1,2-dimethoxyethane] + CCO : 1.3628
2) COCCOCCOCCOCCOC [2,5,8,11,14-pentaoxapentadecane] + CCO : 1.411
3) COCCOCCOCCOC [2,5,8,11-tetraoxadodecane] + CCO : 1.4008
4) COCCOCCOC [2,5,8-trioxanonane] + CCO : 1.3861

---

Test: xn = mol fraction of the nth substance listed
Settings: 298.15 K; 101.32 kPa; Liquid; x1 = 0.55
MEASURED QUANTITY: mass density (kg/m3)

1) COCCOCCOCCOCCOC [2,5,8,11,14-pentaoxapentadecane] + CCO : 970.6
2) COCCOCCOC [2,5,8-trioxanonane] + CCO : 902.3
3) COCCOC [1,2-dimethoxyethane] + CCO : 839.6
4) COCCOCCOCCOC [2,5,8,11-tetraoxadodecane] + CCO : 941.9

---

Experiment: refractive index (Na D-line) (dimensionless); xn = mol fraction of the nth substance listed
Conditions: 298.15 K; 101.32 kPa; Liquid; Standard Abbe refractometry; x1 = 0.1
MEASURED QUANTITY: refractive index

1. COCCOCCOCCOC [2,5,8,11-tetraoxadodecane] + CCO : 1.376
2. COCCOCCOCCOCCOC [2,5,8,11,14-pentaoxapentadecane] + CCO : 1.3819
3. COCCOC [1,2-dimethoxyethane] + CCO : 1.3624
4. COCCOCCOC [2,5,8-trioxanonane] + CCO : 1.3696

---

Assay: xn = mol fraction of the nth substance listed
Conditions: 308.15 K; 101.32 kPa; Liquid; x1 = 0.0305
MEASURED QUANTITY: mass density (kg/m3)

1. COCCOCCOCCOC [2,5,8,11-tetraoxadodecane] + CCO : 794.9
2. COCCOC [1,2-dimethoxyethane] + CCO : 781
3. COCCOCCOC [2,5,8-trioxanonane] + CCO : 788.1
